Record form. Attribute: binding signal. Fill in for each entry.
experimental-system: TDP-43 (Homo sapiens, UniProt Q13148 1-414)
Sequence (Q13148 whole entry): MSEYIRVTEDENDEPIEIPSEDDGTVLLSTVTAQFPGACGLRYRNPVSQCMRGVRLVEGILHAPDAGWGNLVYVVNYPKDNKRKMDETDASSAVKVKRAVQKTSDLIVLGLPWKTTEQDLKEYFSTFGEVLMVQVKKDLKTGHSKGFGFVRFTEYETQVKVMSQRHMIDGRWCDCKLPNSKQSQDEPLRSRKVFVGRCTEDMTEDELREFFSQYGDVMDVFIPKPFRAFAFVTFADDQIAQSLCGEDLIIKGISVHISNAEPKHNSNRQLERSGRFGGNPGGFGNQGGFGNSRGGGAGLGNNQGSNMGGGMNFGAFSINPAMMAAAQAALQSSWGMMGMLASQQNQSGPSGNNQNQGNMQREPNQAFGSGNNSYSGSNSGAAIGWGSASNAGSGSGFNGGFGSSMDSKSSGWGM
test-protocol: RNA Bind-n-Seq with designed 260-mer pool; 25 mM Tris-HCl, 150 mM KCl, 3 mM MgCl2, BSA (printed 500 mg/mL), 20 units/mL SUPERase IN; pH not stated; 500 nM RNA pool, 1 h, 4 C; TDP-43 5, 50, 500 nM; high values mean tight binding
cond: protein: recombinant; tags: SBP (GST cleaved off with PreScission; pGEX-GST-SBP)
In all, about 9,900 sequences were measured (“r (bound/input frequency ratio)”: median about 0.7, highest 2% from about 6.5 on). The entries come from a sample that favours the highest values as a whole.

binder: ENSMUSG00000090935.515|Synj2bp (ssRNA) RNA: GGGAGUUCUACAGUCCGACGAUCGCUUCGAUAUCCGCAUGCUAUGGAGGCCCAGUGUCUGCUACCCUUCUUGUAUCUGAUGGCAUGGGUAACAGCUCUGCCAUGGGCCUGCUUACUUCUAGUAUUCACCUCAGGGCUUGGAAAUUGGUUUUGAAAGGCUUUUAGACAUAGAAAGUAAAACUAAUGGCAAGGAGGAUAAAACACUGUUGUGUGUUGUAUUGUUGAUCUAAAUAAAAAAUAUCAUUGGUAGAAGUUUUACUUUGGUUGAUAAGGAUUCUGAUAACAUUUGGGUCUCCUUAGGAAACUCUUGCGGUCGCACUAGUGUGGAAUUCUCGGGUGUCAAGG
binding signal: 0.412 R (bound/input frequency ratio)

// below: binding signal requested for another binder
// field: binding signal; key: ENSMUSG00000022095.104|Fam160b2 (ssRNA) RNA: GGGAGUUCUACAGUCCGACGAUCGCUUCGAUAUCCGCAUGCUAGCUGUUGCAAAAUUCCCAACUGCCUCCUGGCAGAGGCCCAAAGUAUGCUCUGCGCCCAGGCGGGGGCAGCUGCUAACAAGAGCCCUGGCGCAGCUGCAGCCAGGGCAGGCGAGAGCCUUGGAGCUGGGUGCCAGGCUCCAGCUCCAGCUCCAGCUGGUUCCUCUCUGGCGCCUUCUGAACCCGUCUCAGCAAGUCCGAAACACCUGGGCAGAGAGGUCAUUGACCAGGGAUGGGGGCCCUUGCCCUCUGAAUCCUGCCCACUCUUGCGGUCGCACUAGUGUGGAAUUCUCGGGUGUCAAGG ; value = 0.438 R (bound/input frequency ratio)
